tested on: SNB-75 CNS; assay: NCI tumour cell line growth inhibition, 48 h
measured.metric: TGI

Please give the measured TGI for this molecule: O=C(c1ccccc1)N1C2C3CC(OCc4ccccc4)(OCc4ccccc4)C(O3)C21 (configuration not stated)
> 100 µM

What measured TGI goes with "Cc1ccccc1N=Nc1cc(C)c(N=Nc2c(O)ccc3ccccc23)cc1C" ?
> 100 µM

Returns the measured TGI for the input molecule. Input: COC(O)C12OC3CO[Si](C(C)C)(C(C)C)O[Si](C(C)C)(C(C)C)OC3C1Oc1nc(=O)ccn12 (configuration not stated)
41.3 µM

Recorded TGI of "O=c1[nH]c2cc(C(F)(F)F)ccc2nc1CBr" , please.
30.7 µM

Reported TGI, molecule Cc1cn(CCOCCOC(=O)NC(CCCN=C(N)N)C(=O)O)c(=O)[nH]c1=O (configuration not stated) : ____
> 100 µM

Others:
Which TGI is listed for "O=[N+]([O-])C(=C1NCCN1)/C(Cl)=C(/Cl)N1CCOCC1" ?
> 100 µM

What value of measured TGI is listed for COc1cc2c(cc1OC)C1C(O)C(OC)C(Br)C3(Br)CCN(C2)C13 (configuration not stated) ?
> 100 µM

Reported TGI for CCOC(=O)C(=O)/C=C(\C)Nc1c(NC2OCC(OC(C)=O)C(OC(C)=O)C2OC(C)=O)nc(SC)[nH]c1=O (configuration not stated) : what is it?
> 100 µM

What does the record list as TGI for O=c1nc(Oc2c(F)c(F)c(F)c(F)c2F)ccn1C1OC(CO)C(O)C1O (configuration not stated) ?
> 100 µM

If you can, please state the reported TGI value of "c1ccc(N=C2SC(c3ccccc3)(c3ccccc3)c3ccccc32)cc1" .
> 100 µM

Entry under review: "COc1cc(C(=O)/C=C/c2c(-c3cccs3)nc3sc(C)cn23)cc(OC)c1OC" . Reported TGI?
6.93 µM

TGI for "Cc1ccc2nc(C=Nc3ccccc3Cl)cc(C)c2c1" ?
56.2 µM

----------
Listed here: items and their measured TGI.
tested on: M14 melanoma; assay: NCI tumour cell line growth inhibition, 48 h

Known results for compounds:
Please look up its TGI: "CC(C)=CCC[C@@H](C)C1=C(O)C(c2c(I)c(=O)n(C)c(=O)n2C)=C(C)C(=O)C1=O"
> 100 µM

# get_value(readout='TGI', item= "Cc1ccc(O)c(N=Nc2c(O)cc(S(=O)(=O)O)c3ccccc23)c1" )
> 100 µM

Find the recorded TGI belonging to C[C@]12CCC3c4ccc(O)cc4CC[C@H]3C1CC(=O)N(CCN1CCCC1)C2=O (stereo partly specified) and report it.
> 10 µM

Can you share its TGI? I mean this compound: C[C@]12CCc3nonc3C1CC[C@@H]1C2CC[C@]2(C)C(=O)CCC12 (stereo partly specified)
> 100 µM

So what's the measured TGI for this one? "CCN(CC)CCCNc1nc2ccccc2[n+]([O-])n1"
> 100 µM

# input for lookup
Sample "COC(=O)/C=C\n1ncc(=O)[nH]c1=O" — what was its TGI?
> 100 µM

----------
Catalogue of TGI values
system: OVCAR-4 ovarian; experiment: NCI tumour cell line growth inhibition, 48 h

Record request: TGI value, item "O=c1c2ccccc2nc(/C=C(\O)c2ccccc2)n1-c1ccccc1Cl"
> 100 µM

What value of TGI has been recorded for this entry: "O=C(O)/C=N/NC(=S)NC1CCCCC1"
> 100 µM

So what's the measured TGI for this one? "C/C(=N\NC(=S)NCCNC(=S)N/N=C(\C)c1ccccn1)c1ccccn1"
> 71.2 µM

Requested read-out: TGI. Entry: COc1cccc2c1C(=O)c1c(O)c3c(c(O)c1C2=O)C[C@@](O)(C(=O)CO)C[C@@H]3OC1CC(N)C(O)C(C)O1 (stereo partly specified)
5.19 µM [middle of 4 runs]

Item under review: COc1cc(/C=C2\CC3C4CCC5=CC(=O)CC[C@]5(C)C4CC[C@]3(C)C2=O)ccc1OCCCn1ccnc1 (stereo partly specified) . Reported TGI?
> 100 µM

Others:
What value of measured TGI is listed for "NC(N)=NS(=O)(=O)c1ccc(NC(=O)c2cccc3c(NNc4ccc(C(=O)O)cc4)c4ccccc4nc23)cc1" ?
> 100 µM

Can you share its TGI? I mean this molecule: "C=CCNC(=O)/C=C\C(=O)O"
> 100 µM

----------
test system: KM12 colon; experiment: NCI tumour cell line growth inhibition, 48 h; in the data active = GI50 below about 0.43 µM; inactive = the rest
Lab note: assign the record to one of active, inactive

Example entries and their recorded answers appear below.
Could you kindly confirm the outcome this assay logged for COc1cccc2c1C(CO)N1C(C#N)C3CC(C(=O)O)C(C1C2)N3C (configuration not stated) ?
inactive

Lab log entry: COc1cc(CC(C)C(C)Cc2ccc(O)c(OC)c2)ccc1O (configuration not stated) — outcome as called in the assay?
inactive

Lab log entry: "COc1ccc2c(CCC(c3ccccc3)c3ccccc3)c3[n+](cc2c1OC)CCc1cc2c(cc1-3)OCO2" — outcome as called in the assay?
active

Answer briefly: the call reported for Nc1nc2c(c3cnccc13)C(c1cccc(Br)c1)Cc1cnccc1-2 (configuration not stated) in this assay.
inactive

Write down the call the test reported for this compound. Item: "Nc1nc(-c2cccc3ccccc23)cc2ccccc12"
active

Next:
Just curious, what result did "N#CC(C#N)=C/C=C(\Sc1ccc(F)c(Cl)c1)c1ccc(Cl)cc1" get here?
inactive

Answer briefly: the call reported for "O=C1/C(=C\c2ccc(Br)cc2)CN(C(=O)c2ccccc2F)C/C1=C\c1ccc(Br)cc1" in this assay.
inactive

----------
tested on: SF-295 CNS; assay: NCI tumour cell line growth inhibition, 48 h
measured.metric: GI50

Would you kindly share the measured GI50 for "CC[C@]12C=CCN3CC[C@]4(C(=C(C(=O)OC)C1)Nc1cc(OC)c(OC(C)=O)cc14)[C@@H]32" ?
0.377 µM

Quick one: GI50 for "CCCCCCCCCCCCC[N+](C)(C)Cc1ccccc1" ?
1.42 µM

May I ask what GI50 has been recorded for "CC#Cc1nc2ccccc2c(=O)[nH]1" ?
4.1 µM

Give its GI50 value. Item: "CC(C)(C)N=Cc1ccccc1[O-].CC(C)(C)N=Cc1ccccc1[O-].[Co+2]"
> 100 µM

Kindly consider the entry below.
Give the measured GI50 of "Cc1cc(OCc2n[nH]c(=S)n2/N=C/c2ccc(F)cc2)ccc1Cl" .
30.1 µM

----------
tested on: ACHN renal; assay: NCI tumour cell line growth inhibition, 48 h
Listed next: entries and their corresponding TGI.

Guide cases for TGI, answers given:
Form field: reported TGI of "COc1ccccc1N=Nc1c(-c2ccccc2)nn(C(=O)CC(=O)Nc2ccccc2Cl)c1-c1ccccc1"
> 100 µM

Given the entry "Cn1c(=O)c2ccccc2c2nc3ccccc3nc21" , report its measured TGI.
> 100 µM

Fill in the blank: the reported TGI of COC(O)C12OC3CO[Si](C(C)C)(C(C)C)O[Si](C(C)C)(C(C)C)OC3C1Oc1nc(=O)ccn12 (centres undefined) is ____.
27.5 µM

Here is the next item to consider.
Using the record for "COc1cc(/C=N/N=C(\N)NO)cc(Cl)c1O" , report its TGI.
> 100 µM

----------
tested on: CCRF-CEM leukemia; assay: NCI tumour cell line growth inhibition, 48 h; in the data active means GI50 below about 0.43 µM; inactive means the rest
Thanks in advance; please answer with one of these: YES = active, NO = inactive

Use these answered entries as a reference point.
Per the assay record, what outcome was assigned to "COc1cc2c(cc1O)N=C[C@@H]1C[C@@H](F)CN1C2=O" ?
YES

State the result this test recorded for "Cc1cc(OCc2n[nH]c(=S)n2/N=C/c2ccc(F)cc2)ccc1Cl" .
NO

What classification did "CC(=O)Nc1ccc(-c2csc(Nc3ccc(-c4csc(-c5ccccc5)n4)cc3)n2)cc1" end up with in this test?
NO

// outcome(item) with item = "Cc1cc(C)c(CNC(=O)c2cc(-c3ccc(CN4CCOCC4)cc3)cc3c2cnn3C2CCCC2)c(=O)[nH]1"
NO

Further cases:
Which outcome was entered for the compound "Nc1nc(-c2cccc3ccccc23)cc2ccccc12" in this test?
YES

----------
test system: NCI-H460 lung; assay: NCI tumour cell line growth inhibition, 48 h
measured.metric: TGI

Example molecules with recorded TGI:
What value of TGI has been reported for the following molecule? COc1ccc(-c2[nH]c(=O)n(C3OC(CO)C(O)C(O)C3O)c(=O)c2C#N)cc1 (stereo not drawn)
> 100 µM

Form field: reported TGI of "OC(Cc1cccnc1)(c1ccccc1)c1ccccc1"
> 100 µM

Continue with the molecule presented below.
Please look up its TGI: "Cc1ccnc(NS(=O)(=O)c2ccc(NC3=CC(=O)C(=O)c4ccccc43)cc2)n1"
> 100 µM

----------
test system: U251 CNS; assay: NCI tumour cell line growth inhibition, 48 h
Property: TGI; scope: individual molecules

The examples below pair each entry with its known result.
# lookup: TGI of O=c1[nH]c(=O)n(C2OC(CO)C(N(O)Cc3ccc(F)cc3)C2O)cc1Br (stereo unspecified)
> 100 µM

If you can, please state the reported TGI value of CCOC1=CP(=O)(OCC)CC(C)=C1Cl (stereo unspecified) .
> 100 µM

Endpoint output: TGI of O=c1nc(Oc2c(F)c(F)c(F)c(F)c2F)ccn1C1OC(CO)C(O)C1O (stereo unspecified) . Value?
> 100 µM

For the molecule C[C@]12CC(c3ccccc3O1)C(C(N)=O)C(=O)N2 (stereo partly specified) , what TGI is on record?
> 100 µM

Please give the measured TGI for this molecule: "COc1ccc2c(c1)O[C@@H]1c3ccc(OC)cc3OC[C@H]21"
> 100 µM

Next:
Fill in: TGI of "S=C(Nc1c2c(nc3ccccc13)CCCC2)Nc1c2c(nc3ccccc13)CCCC2" is ___
> 100 µM

I have this molecule here, "COc1ccc2c(CCC(c3ccccc3)c3ccccc3)c3[n+](cc2c1OC)CCc1cc2c(cc1-3)OCO2" , and I need its recorded TGI.
1.38 µM

# TGI lookup, item CCOC1CN(C)C(=Nc2cccc3ccccc23)S1 (stereo unspecified)
> 10 µM

Given "OCCNc1ncnc2nc[nH]c12" , state its recorded TGI.
> 100 µM

Which TGI value is on record for "CC#Cc1nc2ccccc2c(=O)[nH]1" ?
12.8 µM

Reported TGI, molecule "C/C(CC(=O)Nc1ccccc1[N+](=O)[O-])=N\NC(N)=O" : ____
> 100 µM
